The measured values listed here are drawn from ChEMBL document CHEMBL4152218.

Assay: Selectivity index, ratio of IC50 for hTERT-BJ cells to IC50 for human CCRF-CEM cells
Assay type: toxicity
Conditions: hTERT-BJ cells versus CCRF-CEM cells, read-out: Ratio IC50
attribute_measured: selectivity ratio

Here's what some known entries look like.
[
  {
    "mol": "CCOc1ccc2nc(Cl)c(/C=N/NC(=O)c3cc4cc(Br)ccc4oc3=O)cc2c1",
    "selectivity ratio": "> 3.87"
  },
  {
    "mol": "O=C(N/N=C/c1cccnc1)c1cc2ccccc2oc1=O",
    "selectivity ratio": "> 5.05"
  }
]

Alright, here's another molecule for you.
Enquiry: For the molecule Cc1noc(NS(=O)(=O)c2ccc(NC(=O)c3cc4ccccc4oc3=O)cc2)c1C , give its reported selectivity ratio.
Return: > 1.88

====

System: TERT-RPE1
Experiment: Cytotoxicity against hTERT-RPE1 cells at 50 uM after 48 hrs by resazurin dye-based fluorescence assay relative to control
Assay type: cell-based
Settings: human, tert-rpe1, 48 h
Consider the reported Activity of an entry and match it to a band in bin A (below 10%), bin B (10% to below 20%), bin C (20% or more)

// known answers, use as guide
[
  {
    "mol": "CCOc1ccc(NC(=O)c2cc3ccc(O)cc3oc2=O)cc1",
    "assigned_category": "bin C"
  },
  {
    "mol": "CCOc1ccc2nc(Cl)c(/C=N/NC(=O)c3cc4cc([N+](=O)[O-])ccc4oc3=O)cc2c1",
    "assigned_category": "bin B"
  },
  {
    "mol": "O=C(N/N=C/c1cccnc1)c1cc2cc([N+](=O)[O-])ccc2oc1=O",
    "assigned_category": "bin B"
  },
  {
    "mol": "O=C(N/N=C/c1ccncc1)c1cc2cc([N+](=O)[O-])ccc2oc1=O",
    "assigned_category": "bin B"
  },
  {
    "mol": "Cc1noc(NS(=O)(=O)c2ccc(NC(=O)c3cc4ccccc4oc3=O)cc2)c1C",
    "assigned_category": "bin C"
  }
]

Enquiry: Input O=C(N/N=C/c1cccnc1)c1cc2ccccc2oc1=O ; output its category
Return: bin B

Enquiry: Input O=C(N/N=C/c1ccncc1)c1cc2cc(Br)ccc2oc1=O ; output its category
Return: bin C

Enquiry: Input Cc1noc(NS(=O)(=O)c2ccc(NC(=O)c3cc4ccc(O)cc4oc3=O)cc2)c1C ; output its category
Return: bin A

Enquiry: Input Cc1noc(NS(=O)(=O)c2ccc(NC(=O)c3cc4cc(Br)ccc4oc3=O)cc2)c1C ; output its category
Return: bin C

Enquiry: Input O=C(N/N=C/c1cc2ccccc2nc1Cl)c1cc2cc([N+](=O)[O-])ccc2oc1=O ; output its category
Return: bin A

Enquiry: Input CCOc1ccc(NC(=O)c2cc3ccccc3oc2=O)cc1 ; output its category
Return: bin C

Enquiry: Input CCOc1ccc(NC(=O)c2cc3cc([N+](=O)[O-])ccc3oc2=O)cc1 ; output its category
Return: bin A

====

Assay: Selectivity index, ratio of IC50 for hTERT-BJ cells to IC50 for human HepG2 cells
Type: toxicity
Conditions: hTERT-BJ cells versus HepG2 cells, read-out: Ratio IC50
attribute_measured: selectivity ratio

Here's what some known entries look like.
[
  {
    "compound": "CCOc1ccc2nc(Cl)c(/C=N/NC(=O)c3cc4ccccc4oc3=O)cc2c1",
    "selectivity ratio": "> 1.51"
  },
  {
    "compound": "Cc1noc(NS(=O)(=O)c2ccc(NC(=O)c3cc4cc([N+](=O)[O-])ccc4oc3=O)cc2)c1C",
    "selectivity ratio": "> 3.34"
  },
  {
    "compound": "O=C(N/N=C/c1cccnc1)c1cc2cc(Br)ccc2oc1=O",
    "selectivity ratio": "> 2.63"
  },
  {
    "compound": "CCOc1ccc(NC(=O)c2cc3cc([N+](=O)[O-])ccc3oc2=O)cc1",
    "selectivity ratio": "> 1.77"
  },
  {
    "compound": "CCOc1ccc2nc(Cl)c(/C=N/NC(=O)c3cc4ccc(O)cc4oc3=O)cc2c1",
    "selectivity ratio": "> 2.6"
  },
  {
    "compound": "O=C(N/N=C/c1cccnc1)c1cc2ccc(O)cc2oc1=O",
    "selectivity ratio": "> 2.72"
  },
  {
    "compound": "O=C(N/N=C/c1cc2ccccc2nc1Cl)c1cc2cc([N+](=O)[O-])ccc2oc1=O",
    "selectivity ratio": "> 2.2"
  },
  {
    "compound": "O=C(N/N=C/c1ccncc1)c1cc2cc(Br)ccc2oc1=O",
    "selectivity ratio": "> 10.2"
  },
  {
    "compound": "COc1cccc2c1C(=O)c1c(O)c3c(c(O)c1C2=O)C[C@@](O)(C(=O)CO)C[C@@H]3O[C@H]1C[C@H](N)[C@H](O)[C@H](C)O1 [DOXORUBICIN]",
    "selectivity ratio": "< 1.15"
  },
  {
    "compound": "O=C(N/N=C/c1cccnc1)c1cc2cc([N+](=O)[O-])ccc2oc1=O",
    "selectivity ratio": "> 2.94"
  }
]

Enquiry: For the compound O=C(N/N=C/c1ccncc1)c1cc2ccccc2oc1=O , give its reported selectivity ratio.
Return: > 2.91

====

Entries and their selectivity ratio values follow.
Test: Selectivity index, ratio of IC50 for hTERT-BJ cells to IC50 for human PANC1 cells
Type: toxicity
Settings: hTERT-BJ cells versus PANC1 cells, read-out: Ratio IC50

Here's what some known entries look like.
[
  {
    "mol": "O=C(N/N=C/c1cccnc1)c1cc2cc([N+](=O)[O-])ccc2oc1=O",
    "result": "> 4.24"
  },
  {
    "mol": "O=C(N/N=C/c1cccnc1)c1cc2cc(Br)ccc2oc1=O",
    "result": "> 5.99"
  },
  {
    "mol": "O=C(N/N=C/c1cc2ccccc2nc1Cl)c1cc2cc(Br)ccc2oc1=O",
    "result": "> 9.18"
  },
  {
    "mol": "O=C(N/N=C/c1cc2ccccc2nc1Cl)c1cc2cc([N+](=O)[O-])ccc2oc1=O",
    "result": "> 1.29"
  }
]

Alright, here's another compound for you.
Enquiry: For the compound Cc1noc(NS(=O)(=O)c2ccc(NC(=O)c3cc4ccccc4oc3=O)cc2)c1C , give its reported selectivity ratio.
Return: > 2.51

====

Entries and their Activity values follow.
Test system: TERT-RPE1
Test: Cytotoxicity against hTERT-RPE1 cells at 6.25 uM after 48 hrs by resazurin dye-based fluorescence assay relative to control
Assay type: cell-based
Conditions: human, tert-rpe1, 48 h
Output should be the measured figure followed by the unit it is expressed in.

Here's what some known entries look like.
[
  {
    "mol": "O=C(N/N=C/c1cc2ccccc2nc1Cl)c1cc2cc([N+](=O)[O-])ccc2oc1=O",
    "result": "1.3%"
  },
  {
    "mol": "O=C(N/N=C/c1ccncc1)c1cc2ccccc2oc1=O",
    "result": "0.65%"
  },
  {
    "mol": "CCOc1ccc(NC(=O)c2cc3cc(Br)ccc3oc2=O)cc1",
    "result": "3.04%"
  },
  {
    "mol": "Cc1noc(NS(=O)(=O)c2ccc(NC(=O)c3cc4ccccc4oc3=O)cc2)c1C",
    "result": "9.28%"
  },
  {
    "mol": "Cc1noc(NS(=O)(=O)c2ccc(NC(=O)c3cc4ccc(O)cc4oc3=O)cc2)c1C",
    "result": "0.99%"
  }
]

Alright, here's another molecule for you.
Enquiry: For the molecule CCOc1ccc2nc(Cl)c(/C=N/NC(=O)c3cc4cc([N+](=O)[O-])ccc4oc3=O)cc2c1 , give its reported Activity.
Return: 1.74%

====

Entries and their Activity values follow.
System: hTERT-BJ
Test: Cytotoxicity against hTERT-BJ cells at 25 uM after 48 hrs by resazurin dye-based fluorescence assay relative to control
Assay type: cell-based
Settings: human
Enter your answer as a number in %; do not include the unit.

[
  {
    "mol": "Cc1noc(NS(=O)(=O)c2ccc(NC(=O)c3cc4cc(Br)ccc4oc3=O)cc2)c1C",
    "value_units": "%",
    "Activity": 3.04
  }
]

Enquiry: For the compound CCOc1ccc(NC(=O)c2cc3ccc(O)cc3oc2=O)cc1 , give its reported Activity.
Return: 30.03

Enquiry: For the compound O=C(N/N=C/c1cccnc1)c1cc2ccccc2oc1=O , give its reported Activity.
Return: 5.22

Enquiry: For the compound CCOc1ccc(NC(=O)c2cc3cc(Br)ccc3oc2=O)cc1 , give its reported Activity.
Return: 1.86

Enquiry: For the compound CCOc1ccc2nc(Cl)c(/C=N/NC(=O)c3cc4ccc(O)cc4oc3=O)cc2c1 , give its reported Activity.
Return: 2.26

Enquiry: For the compound O=C(N/N=C/c1ccncc1)c1cc2ccccc2oc1=O , give its reported Activity.
Return: 3.9
